Test system: p21 induction in HCT116 cells
Assay: p21 induction in HCT116 cells
Type: cell-based
Conditions: Homo sapiens, HCT-116, 24 h, HCT116 cells, 24 h compound incubation; read-out: P21_EC50
Method: The colon carcinoma cell line HCT116 was obtained from ATCC and cultured in growth medium consisting of Mccoy's 5A Medium (Gibco 16600108) supplemented with 10% FBS (Transgene FS201-02) and 100 units/mL penicillin-streptomycin (Gibco 15140122) and maintained at 37° C. under 5% CO2. […] Finally, the p21 signal and the GAPDH signal were quantified using a LI-COR Odyssey CLx Imager machine reading at 800 nm and 700 nm, respectively. […]
pEC50: −log10 of the molar value.
Listed here are compounds together with their documented pEC50.
value kind: pEC50

INSERT INTO measurements (compound, value_observed) VALUES
  ('CCc1c(N2CCN(C(=O)c3ncnc(C)c3O)CC2)c(=O)c2nc(N(C)C(C)C)cnc2n1CC(=O)Nc1ccc(C(F)(F)F)cc1Cl [I-175]', '5.30 to 5.70'),
  ('CCc1c(N2CCN(C(=O)c3c(OC)ncc(C)c3O)C[C@@H]2C)c(=O)c2nc(N(C)C)cnc2n1CC(=O)Nc1ccc(C(F)(F)F)cc1Cl [I-228]', '> 6.30'),
  ('CCc1c(N2CCN(C(=O)c3ncnc(C)c3O)CC2)c(=O)c2nc(N(C)CCN(C)C)cnc2n1CC(=O)Nc1ccc(C(F)(F)F)cc1Cl [I-154]', '< 5.30'),
  ('CCc1c(N2CCN(C(=O)c3ncnc(C)c3O)CC2)c(=O)c2nc3sc(C)cc3nc2n1CC(=O)Nc1ccc(C(F)(F)F)cc1Cl [I-113]', '> 6.30'),
  ('CCc1c(N2CCN(C(=O)c3ncnc(C)c3O)[C@H]3CC[C@@H]32)c(=O)c2nc(-c3ccnc(OC)c3)cnc2n1CC(=O)Nc1ccc(C(F)(F)F)cc1Cl [I-283]', '> 6.30'),
  ('CCc1c(N2CCN(C(=O)c3cnn(C)c3)CC2)c(=O)c2ncc(C)nc2n1CC(=O)Nc1ccc(C(F)(F)F)cc1Cl [I-2]', '< 5.30'),
  ('CCc1c(N2CCN(C(=O)c3ncnc(C)c3O)CC2)c(=O)c2nc(N(C)[C@H]3CC[C@H]3OC)cnc2n1CC(=O)Nc1ccc(C(F)(F)F)cc1Cl (racemic) [I-146]', '5.30 to 5.70'),
  ('CCc1c(N2CCN(C(=O)c3ncnc(C)c3O)CC2)c(=O)c2nc(-c3ccnc(OC)c3)c(C)nc2n1CC(=O)Nc1ccc(C(F)(F)F)cc1Cl [I-65]', '< 5.30'),
  ('CCc1c(N2CCN(C(=O)c3ncnc(C)c3O)CC2)c(=O)c2nc(N(C)C)cnc2n1CC(=O)Nc1c(F)cc(C(F)(F)F)cc1Cl [I-133]', '< 5.30'),
  ('[2H]C([2H])([2H])N(c1cnc2c(n1)c(=O)c(N1CCN(C(=O)c3ncnc(C)c3O)[C@H]3CC[C@@H]31)c(CC)n2CC(=O)Nc1ccc(C(F)(F)F)cc1F)C([2H])([2H])[2H] [I-214]', '> 6.30'),
  ('CCc1c(N2CCN(C(=O)c3c(O)cnnc3OC)[C@H]3CC[C@@H]32)c(=O)c2nc(N(C)C)cnc2n1CC(=O)Nc1ccc(C(F)(F)F)cc1Cl [I-183]', '< 5.30'),
  ('CCc1c(N2CCN(C(=O)c3ncnc(C)c3O)CC2)c(=O)c2nc(-c3cnn(C)c3)c(C)nc2n1CC(=O)Nc1ccc(C(F)(F)F)cc1Cl [I-63]', '< 5.30');

###

Target: WRN (BV08), human Werner helicase (Uniprot Q14191, amino acids 517-1235 with L1074F point mutation) (Homo sapiens (Human), UniProt Q14191, L1074F)
Sequence (Q14191 other isoform, or with tags, fused parts or gaps L1074F (already in the parent)): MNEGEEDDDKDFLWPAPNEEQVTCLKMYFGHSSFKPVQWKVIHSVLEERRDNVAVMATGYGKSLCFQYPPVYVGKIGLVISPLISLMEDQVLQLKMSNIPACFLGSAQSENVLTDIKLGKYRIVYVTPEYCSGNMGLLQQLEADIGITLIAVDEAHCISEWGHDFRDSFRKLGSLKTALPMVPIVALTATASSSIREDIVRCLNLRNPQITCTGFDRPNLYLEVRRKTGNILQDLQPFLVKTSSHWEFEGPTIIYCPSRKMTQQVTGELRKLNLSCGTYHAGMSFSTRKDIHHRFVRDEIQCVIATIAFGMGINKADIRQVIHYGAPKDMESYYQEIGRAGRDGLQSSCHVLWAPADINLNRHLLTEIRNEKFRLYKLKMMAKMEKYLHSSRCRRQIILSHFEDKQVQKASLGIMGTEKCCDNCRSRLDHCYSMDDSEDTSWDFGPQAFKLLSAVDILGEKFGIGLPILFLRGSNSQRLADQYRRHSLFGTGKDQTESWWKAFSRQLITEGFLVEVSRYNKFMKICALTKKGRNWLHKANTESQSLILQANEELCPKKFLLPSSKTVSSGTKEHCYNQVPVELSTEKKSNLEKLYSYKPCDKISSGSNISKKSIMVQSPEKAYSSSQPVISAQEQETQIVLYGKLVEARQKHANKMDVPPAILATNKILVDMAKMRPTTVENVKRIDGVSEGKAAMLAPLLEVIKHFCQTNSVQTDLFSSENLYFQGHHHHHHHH
Test: WRN (BV08) ADP-Glo assay
Details: class symbols A-E, read-out: ADP-Glo_hWRN_IC50
Each record here notes measured IC50.
value kind: IC50

INSERT INTO measurements (molecule, value_kind, value_observed) VALUES
  ('CCc1c(N2CCN(C(=O)c3ncnc(C)c3O)[C@H]3CC[C@@H]32)c(=O)c2nc(N(C)C)cnc2n1CC(=O)NC12CC(C(F)(F)F)(C1)C2 [I-110]', 'IC50', '100 to 500 nM'),
  ('CCc1c(N2CCN(C(=O)c3ncnc(C)c3O)CC2)c(=O)c2nc(N3CCOCC3)cnc2n1CC(=O)Nc1ccc(C(F)(F)F)cc1Cl [I-52]', 'IC50', '5 to 50 nM'),
  ('CCc1c(N2CCN(C(=O)c3ncnc(C)c3O)CC2)c(=O)c2nc(N3CC4(CC4)C3)cnc2n1CC(=O)Nc1ccc(C(F)(F)F)cc1Cl [I-162]', 'IC50', '5 to 50 nM');

###

Molecular target: WRN (BV08), human Werner helicase (Uniprot Q14191, amino acids 517-1235 with L1074F point mutation) (Homo sapiens (Human), UniProt Q14191, L1074F)
Test: WRN (BV08) ADP-Glo assay
Conditions: class symbols A-E, read-out: ADP-Glo_hWRN_IC50
pIC50: −log10 of the molar value.
value kind: pIC50

INSERT INTO measurements (compound, value_kind, value_observed) VALUES
  ('CCc1c(N2CCN(C(=O)c3ncnc(C)c3O)[C@H]3CC[C@@H]32)c(=O)c2nc(C3CC3)cnc2n1CC(=O)Nc1ccc(C(F)(F)F)cc1F', 'pIC50', '≥ 8.30'),
  ('CCc1c(N2CCN(C(=O)c3ncnc(C)c3O)CC2)c(=O)c2nc(N(C)C(C)=O)cnc2n1CC(=O)Nc1ccc(C(F)(F)F)cc1Cl', 'pIC50', '7.00 to 7.30'),
  ('CCc1c(N2CCN(C(=O)c3ncnc(C)c3O)CC2)c(=O)c2nc(CCO)cnc2n1CC(=O)Nc1ccc(C(F)(F)F)cc1Cl', 'pIC50', '6.30 to 7.00'),
  ('CCc1c(N2CCN(C(=O)c3ncnc(C)c3O)[C@@H]3CC[C@H]32)c(=O)c2nc(C=C3CCC3)cnc2n1CC(=O)Nc1ccc(C(F)(F)F)cc1Cl (racemic)', 'pIC50', '7.30 to 8.30'),
  ('CCc1c(N2CCN(C(=O)c3ncnc(C)c3O)[C@H](C)[C@H]2C)c(=O)c2nc(N(C)C)cnc2n1CC(=O)Nc1ccc(C(F)(F)F)cc1Cl (single isomer, unassigned)', 'pIC50', '7.30 to 8.30'),
  ('CCc1c(N2CCN(C(=O)c3ncnc(C)c3O)CC2)c(=O)c2nc(N(C)[C@H]3CC[C@@H]3OC)cnc2n1CC(=O)Nc1ccc(C(F)(F)F)cc1Cl (racemic)', 'pIC50', '7.30 to 8.30');

###

Target: WRN (BV08), human Werner helicase (Uniprot Q14191, amino acids 517-1235 with L1074F point mutation) (Homo sapiens (Human), UniProt Q14191, L1074F)
Test: WRN (BV08) ADP-Glo assay
Settings: class symbols A-E, read-out: ADP-Glo_hWRN_IC50
value kind: IC50

INSERT INTO results (molecule, value_observed) VALUES
  ('CCc1c(N2CCN(C(=O)c3ncnc(C)c3O)[C@H]3CC[C@@H]32)c(=O)c2nc(N3CC[C@@H](O)C3)cnc2n1CC(=O)Nc1ccc(C(F)(F)F)cc1Cl', '0.005 to 0.05 µM'),
  ('CCc1c(N2CCN(C(=O)c3ncnc(C)c3O)CC2)c(=O)c2nc(C=C3CC(C)(O)C3)cnc2n1CC(=O)Nc1ccc(C(F)(F)F)cc1Cl (stereo not drawn)', '0.005 to 0.05 µM'),
  ('CCc1c(C2=CCN(C(=O)c3ncnc(C)c3O)CC2)c(=O)c2nc(N(C)C)cnc2n1CC(=O)Nc1ccc(C(F)(F)F)cc1Cl', '0.005 to 0.05 µM'),
  ('CCc1c(N2CCN(C(=O)c3ncnc(C)c3O)[C@H]3CC[C@@H]32)c(=O)c2nc(N3CC[C@H]4C[C@H]43)cnc2n1CC(=O)Nc1ccc(C(F)(F)F)cc1F (relative stereo)', '≤ 0.005 µM'),
  ('CCc1c(N2CCN(C(=O)c3ncnc(C)c3O)CC2)c(=O)c2nc(C(=O)N(C)C)cnc2n1CC(=O)Nc1ccc(C(F)(F)F)cc1Cl', '0.1 to 0.5 µM'),
  ('CCc1c(N2CCN(C(=O)c3ncnc(C)c3O)[C@@H](C)C2)c(=O)c2nc(N(C)C)cnc2n1CC(=O)Nc1ccc(C(F)(F)F)cc1Cl', '0.005 to 0.05 µM'),
  ('CCc1c(N2CCN(C(=O)c3ncnc(C)c3O)CC2)c(=O)c2nc(N3CC[C@@H]4CC[C@@H]43)cnc2n1CC(=O)Nc1ccc(C(F)(F)F)cc1Cl (racemic)', '0.005 to 0.05 µM'),
  ('CCc1c(N2CCN(C(=O)c3ncnc(C)c3O)CC2)c(=O)c2nc(C3=CCOCC3)cnc2n1CC(=O)Nc1ccc(C(F)(F)F)cc1Cl', '0.005 to 0.05 µM'),
  ('CCc1c(N2CCN(C(=O)c3ncnc(C)c3O)CC2)c(=O)c2nc(N(C)C)cnc2n1CC(=O)Nc1c(F)cc(C(F)(F)F)cc1F', '0.005 to 0.05 µM'),
  ('CCc1c(N2CCN(C(=O)c3ncnc(C)c3O)CC2)c(=O)c2nc(N(C)S(C)(=O)=O)cnc2n1CC(=O)Nc1ccc(C(F)(F)F)cc1Cl', '0.1 to 0.5 µM'),
  ('CCc1c(N2CCN(C(=O)c3ncnc(C)c3O)CC2)c(=O)c2nc(N(C)CCOC)cnc2n1CC(=O)Nc1ccc(C(F)(F)F)cc1Cl', '0.005 to 0.05 µM'),
  ('CCc1c(N2CCN(C(=O)c3ncnc(C)c3O)CC2)c(=O)c2nc(C3CC3(F)F)cnc2n1CC(=O)Nc1ccc(C(F)(F)F)cc1Cl (stereo in doubt)', '0.005 to 0.05 µM'),
  ('CCc1c(N2CCN(C(=O)c3ncnc(C)c3O)CC2)c(=O)c2nc(N3CCCC3C(C)(C)O)cnc2n1CC(=O)Nc1ccc(C(F)(F)F)cc1Cl (stereo not drawn)', '0.005 to 0.05 µM'),
  ('CCc1c(N2CCN(C(=O)c3ncnc(C)c3O)[C@H]3CC[C@@H]32)c(=O)c2nc(N(C)[C@H]3CC[C@H](O)C3)cnc2n1CC(=O)Nc1ccc(C(F)(F)F)cc1Cl', '0.005 to 0.05 µM'),
  ('CCc1c(N2CCN(C(=O)c3ncnc(C)c3O)CC2)c(=O)c2nccnc2n1CC(=O)Nc1ccc(C(F)(F)F)cc1Cl', '0.005 to 0.05 µM'),
  ('CCc1c(N2CCN(C(=O)c3ncnc(C)c3O)C(CO)C2)c(=O)c2nc(N(C)C)cnc2n1CC(=O)Nc1ccc(C(F)(F)F)cc1Cl (stereo not drawn)', '0.005 to 0.05 µM'),
  ('CCc1c(N2CCN(C(=O)c3ncnc(C)c3O)[C@H]3CC[C@@H]32)c(=O)c2nc(CN3CCOCC3)cnc2n1CC(=O)Nc1ccc(C(F)(F)F)cc1Cl', '0.005 to 0.05 µM'),
  ('CCc1c(N2CCN(C(=O)c3ncnc(C)c3O)[C@@H](COC)C2)c(=O)c2nc(N(C)C)cnc2n1CC(=O)Nc1ccc(C(F)(F)F)cc1Cl (single isomer, unassigned) [I-96]', '0.005 to 0.05 µM'),
  ('CCc1c(N2CCN(C(=O)c3ncnc(C)c3O)C3COCC32)c(=O)c2nc(N(C)C)cnc2n1CC(=O)Nc1ccc(C(F)(F)F)cc1Cl (single isomer, unassigned) [I-278]', '0.005 to 0.05 µM'),
  ('CCc1c(N2CCN(C(=O)c3ncnc(C)c3O)CC2)c(=O)c2nc(C)cnc2n1CC(=O)Nc1ccc(C(F)(F)F)cc1Cl', '0.005 to 0.05 µM'),
  ('CCc1c(N2CCN(C(=O)c3c(Oc4cnn(C)c4)ncc(C)c3O)[C@H]3CC[C@@H]32)c(=O)c2nc(N(C)C)cnc2n1CC(=O)Nc1ccc(C(F)(F)F)cc1Cl', '0.005 to 0.05 µM'),
  ('CCc1c(N2CCN(C(C)=O)CC2)c(=O)c2ncc(C)nc2n1CC(=O)Nc1ccc(C(F)(F)F)cc1Cl', '0.1 to 0.5 µM'),
  ('CCc1c(N2CCN(C(=O)c3ncnc(C)c3O)CC2)c(=O)c2nc(NC(C)=O)cnc2n1CC(=O)Nc1ccc(C(F)(F)F)cc1Cl', '0.005 to 0.05 µM'),
  ('CCc1c(N2CCN(C(=O)c3ncnc(C)c3O)CC2)c(=O)c2nc(C(F)F)cnc2n1CC(=O)Nc1ccc(C(F)(F)F)cc1Cl', '0.05 to 0.1 µM');
